- Tested on: Enterococcus hirae
- PROTOCOL_DESCRIPTION: microbe, parasite or virus in culture
- Format: functional
- TEST_PARAMETERS: ATCC 10541, 18 h
Each record here notes measured MIC.
Express it in µg/mL; write the number only.

A selection of reference data follows.
CC(C)=CCC/C(C)=C/C(=O)O ... 512
CC/C=C\C/C=C\C/C=C\CCCCCCCC(=O)O ... 512
CCCCCCCC/C=C/CCCCCCCC(=O)O ... 512
CCCCCCCCCCCCCCCC(=O)O ... 512
O=C(O)c1cn(C2CC2)c2cc(N3CCNCC3)c(F)cc2c1=O ... 8

IN: Read the entry C/C=C/C=C/C(=O)O and write its reported MIC.
OUT: 512

IN: Read the entry CCCCCCCC/C=C\CCCCCCCCCCCC(=O)O and write its reported MIC.
OUT: 64

----------
- Test system: HaCaT
- PROTOCOL_DESCRIPTION: Induction of apoptosis in human HaCaT cells at antiproliferative IC50 incubated for 72 hrs by annexin V FITC and PI staining based flow cytometry
- Assay type: cell-based
ATTRIBUTE_MEASURED: Activity

IN: Read the entry O=C(O)c1cn(C2CC2)c2cc(N3CCNCC3)c(F)cc2c1=O and write its reported Activity.
OUT: 6.2 to 12%

----------
Each record here notes measured MIC.
- Tested on: Staphylococcus epidermidis
- PROTOCOL_DESCRIPTION: microbe, parasite or virus in culture
- Format: functional
- TEST_PARAMETERS: ATCC 12228, 18 h
Express it in µg/mL; write the number only.

A selection of reference data follows.
CC/C=C\C/C=C\C/C=C\CCCCCCCC(=O)O ... 512
O=C(O)c1cn(C2CC2)c2cc(N3CCNCC3)c(F)cc2c1=O ... 0.25

IN: Read the entry CCCCCCCCCCCCCCCC(=O)O and write its reported MIC.
OUT: 512

IN: Read the entry CC(C)=CCC/C(C)=C/C(=O)O and write its reported MIC.
OUT: 512

----------
- Tested on: Staphylococcus epidermidis
- PROTOCOL_DESCRIPTION: microbe, parasite or virus in culture
- Type: functional
- TEST_PARAMETERS: ATCC 12228, 18 h
Each record here notes measured MIC.

IN: Read the entry C/C=C/C=C/C(=O)O [SORBIC ACID] and write its reported MIC.
OUT: > 512 µg/mL

IN: Read the entry C/C=C/C(=O)O [CROTONIC ACID] and write its reported MIC.
OUT: > 512 µg/mL

----------
Each record here notes measured MIC.
- System: Staphylococcus epidermidis
- PROTOCOL_DESCRIPTION: microbe, parasite or virus in culture
- Format: functional
- TEST_PARAMETERS: ATCC 12228, 18 h
Express it in µg/mL; write the number only.

A selection of reference data follows.
CCCCCCCC/C=C\CCCCCCCCCCCC(=O)O ... 256
CCCCCCCC/C=C\CCCCCCCC(=O)O ... 512

IN: Fill in: MIC on Staphylococcus epidermidis, entry CCCCCCCC/C=C/CCCCCCCC(=O)O
OUT: 512
